organism: Homo sapiens; assay: Inhibition of PKA2 (unknown origin) assessed as inhibition of cAMP-induced activation at 25 uM by spectrophotometric analysis
Calls of active or inactive are those of the source. The rule behind the calls is not given here.
Recorded endpoint: inhibition

>>> assay_value("Cc1cc(C)c(S(=O)(=O)n2cc(C)cc2C)c(C)c1")
"inactive"
>>> assay_value("Cc1ccc(S(=O)(=O)c2c(C)cc(C)cc2C)cc1")
"inactive"
>>> assay_value("Cc1cc(C)c(Nc2cc(Cl)ccc2Cl)c(C)c1")
"inactive"
